Tested on: OVCAR-5
Measurement notes: NCI tumour cell line growth inhibition, 48 h
Activity calls are given as the source filed them. Cut-off read from the data, not from the text of the source: active = GI50 up to about 1.1 µM and inactive = higher.
Measurement kind: GI50

Entry under test: CC(C)(C)c1cc(CCCCCCCC2(CCCCCCCc3cc(C(C)(C)C)cc(C(C)(C)C)c3)OC(COCCOCCCCCC#N)C(COCCOCCCCCC#N)O2)cc(C(C)(C)C)c1 (centres undefined) . Its GI50 was > 100 µM (inactive)

Entry under test: "Oc1ccc(Cl)cc1C1=Nn2c(COc3ccc4c(c3)CCCC4)nnc2SC1" . Its GI50 was 17.2 µM (inactive)

Entry under test: "CCn1c(SCC(=O)NNC(=S)NC)nc2ccccc2c1=O" . Its GI50 was > 100 µM (inactive)

Entry under test: COC(=O)C1=C(OC(=O)/C(=C/c2ccccc2)c2ccc([N+](=O)[O-])cc2)C(C(=O)OC)[C@@]2(O)[C@@H](C(=O)OC)[C@H](C)C[C@@H]1[C@@H]2C(=O)OC (some centres undefined) . Its GI50 was > 100 µM (inactive)

Entry under test: "CCOC(=O)c1c(NC(=S)NCc2ccccc2)sc2c1CCN(C)C2" . Its GI50 was > 100 µM (inactive)

Entry under test: "COC(=O)[C@]12CSC[C@H]1C[C@H](c1ccc(N(C)C)cc1)N2" . Its GI50 was > 100 µM (inactive)

Entry under test: CC1=COC2=C(C)C(=O)C(=O)c3c(C)ccc1c32 [MANSONONE F] . Its GI50 was 18.2 µM (inactive)

Entry under test: "CCCC(=O)c1ccc2c(ccc(=O)n2C)c1" . Its GI50 was > 100 µM (inactive)

Entry under test: CCCCN(CCCC)CC(O)c1cc(-c2ccc(C(F)(F)F)cc2)nc(-c2ccc(C(F)(F)F)cc2)c1 (centres undefined) . Its GI50 was > 100 µM (inactive)

Entry under test: C/C(=N\NS(=O)(=O)c1ccc(C)cc1)C(CN(C)C)C(c1ccccc1)c1c(O)c2ccccc2oc1=O (centres undefined) . Its GI50 was > 100 µM (inactive)

Entry under test: "O=C(NCCCNCCCNC(=O)c1cc(-c2ccccc2)nc2ccccc12)c1cc(-c2ccccc2)nc2ccccc12" . Its GI50 was 1.87 µM (inactive)

Entry under test: CC1(C)C(O)C[C@]23CCC[C@](C)(C[C@@H](O)C12)C3 (some centres undefined) . Its GI50 was > 100 µM (inactive)

Entry under test: OC[C@H]1O[C@@H](n2cnc3c(S)ncnc32)[C@H](O)[C@@H]1O [THIOINOSINE] . Its GI50 was > 2500 µM (inactive)

Entry under test: CC(C)C1=CC2=CC[C@@H]3[C@](C)(CCC[C@@]3(C)C(=O)O)[C@H]2CC1 [ABIETIC ACID] . Its GI50 was > 75.5 µM (inactive)

Source: ChEMBL document CHEMBL1201862
